Recorded values, source the supplement of paper PMC9112550.

- Test system: Escherichia coli TOP10
- Assay Protocol: shrunken log2 fold change of peptide-encoding DNA abundance (4.5 h post-induction vs induction); higher = less antimicrobial activity (less host growth inhibition)
- Particulars: time post-induction: 4.5 h; library: site-saturation at positions 5, 18, 19, 20
shrunken log2 fold change below -0.2 gives NOT MET; shrunken log2 fold change at or above it gives MET.

Reference set (4 entries):
RRIRSRPPRLPRPRPRPKSKPRP MET
RRIRARPPRLPRPRPRPWNEPRP MET
RRIRKRPPRLPRPRPRPPWKPRP MET
RRIRKRPPRLPRPRPRPTWEPRP MET

Exam item: decide whether the reported shrunken log2 fold change for `RRIRSRPPRLPRPRPRPEMLPRP` is at least -0.2.
MET

// query: `RRIRTRPPRLPRPRPRPSNMPRP`
NOT MET

// query: `RRIRARPPRLPRPRPRPFWCPRP`
MET

// query: `RRIRPRPPRLPRPRPRPGSAPRP`
MET

// query: `RRIRGRPPRLPRPRPRPILTPRP`
MET

---

- Tested on: Escherichia coli TOP10
- Assay Protocol: shrunken log2 fold change of peptide-encoding DNA abundance (4.5 h post-induction vs induction); higher = less antimicrobial activity (less host growth inhibition)
- Particulars: time post-induction: 4.5 h; library: site-saturation at positions 5, 18, 19, 20
Recorded shrunken log2 fold change by entry
Kindly provide the number alone.

RRIRLRPPRLPRPRPRPMVHPRP 0.012
RRIRVRPPRLPRPRPRPRQIPRP 0.0436
RRIRQRPPRLPRPRPRPKDLPRP -0.0616
RRIRKRPPRLPRPRPRPGAWPRP 0.364
RRIRWRPPRLPRPRPRPHYSPRP -0.279
RRIRLRPPRLPRPRPRPAGPPRP 0.338
RRIRPRPPRLPRPRPRPRCFPRP 0.155
RRIRYRPPRLPRPRPRPVNDPRP -0.24
RRIRFRPPRLPRPRPRPHTVPRP 0.0365
RRIRKRPPRLPRPRPRPRVYPRP 0.307

Request the reported shrunken log2 fold change associated with `RRIRNRPPRLPRPRPRPDRKPRP`
-0.00776

// query: `RRIRQRPPRLPRPRPRPAHAPRP`
0.0691

---

- System: Escherichia coli TOP10
- Assay Protocol: shrunken log2 fold change of peptide-encoding DNA abundance (4.5 h post-induction vs induction); higher = less antimicrobial activity (less host growth inhibition)
- Particulars: time post-induction: 4.5 h; library: site-saturation at positions 5, 18, 19, 20
shrunken log2 fold change below 0.07 gives no; shrunken log2 fold change at or above it gives yes.

RRIRWRPPRLPRPRPRPNCGPRP yes

Exam item: decide whether the reported shrunken log2 fold change for `RRIRNRPPRLPRPRPRPEFMPRP` is at least 0.07.
no

// query: `RRIRFRPPRLPRPRPRPHGSPRP`
no

// query: `RRIRCRPPRLPRPRPRPDEKPRP`
yes

---

- Tested on: Escherichia coli TOP10;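 further: peptides expressed intracellularly from a pBAD plasmid library in pooled LB shake-flask culture, induced with 0.3% L-arabinose, DNA abundance read by NGS, three biological replicates, DESeq2 with apeglm shrinkage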
- Assay Protocol: shrunken log2 fold change of peptide-encoding DNA abundance (4.5 h post-induction vs induction); higher = less antimicrobial activity (less host growth inhibition)
- Particulars: time post-induction: 4.5 h; library: site-saturation at positions 5, 18, 19, 20
shrunken log2 fold change below 0.009 gives NOT MET; shrunken log2 fold change at or above it gives MET.

RRIRRRPPRLPRPRPRPLIVPRP NOT MET

Exam item: decide whether the reported shrunken log2 fold change for `RRIRCRPPRLPRPRPRPHHTPRP` is at least 0.009.
NOT MET
